molecular target: T1, platelet-derived growth factor-BB (PDGF-BB) (UniProt P01127 82-190); experiment: equilibrium binding
T1 construct: Two B chains by its name BB
T1 sequence (P01127 82-190 limits assumed): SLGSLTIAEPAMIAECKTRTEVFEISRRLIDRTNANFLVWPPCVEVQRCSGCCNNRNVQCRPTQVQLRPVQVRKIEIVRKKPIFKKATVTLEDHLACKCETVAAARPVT
MEASUREMENT_KIND: Kd (nM)
Entry rule: numbers only, all in nM.

Query: # input binder: QPSHISKYILRWRPKNSVGRWKEAT (Synthetic peptide; also called FN634-658) [peptide 1 (QPSHISKYILRWRPKNSVGRWKEAT)] ; wanted: its Kd
Result: 250
